# subject.of.test: human recombinant Yes [a.a. 2–543 (end)] (Homo sapiens)
# Construct: human recombinant Yes [a.a; 2–543 (end)]; purchased BPS Bioscience 40488
# Sequence (P07947 2-543): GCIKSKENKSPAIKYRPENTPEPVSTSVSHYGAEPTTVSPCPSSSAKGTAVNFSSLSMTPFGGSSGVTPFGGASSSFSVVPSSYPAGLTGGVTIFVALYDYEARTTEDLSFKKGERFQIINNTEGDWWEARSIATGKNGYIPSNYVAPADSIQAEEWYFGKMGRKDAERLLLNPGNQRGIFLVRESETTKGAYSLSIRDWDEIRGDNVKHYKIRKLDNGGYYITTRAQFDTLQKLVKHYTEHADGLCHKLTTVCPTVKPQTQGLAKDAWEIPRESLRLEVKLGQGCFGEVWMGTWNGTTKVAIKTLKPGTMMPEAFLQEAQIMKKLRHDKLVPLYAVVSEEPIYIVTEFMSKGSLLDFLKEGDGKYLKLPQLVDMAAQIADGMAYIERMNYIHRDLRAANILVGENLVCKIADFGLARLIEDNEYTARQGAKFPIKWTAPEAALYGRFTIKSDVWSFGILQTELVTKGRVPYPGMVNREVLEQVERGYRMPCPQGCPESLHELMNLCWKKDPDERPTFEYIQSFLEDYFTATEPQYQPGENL
# procedure.details: ADP-Glo kinase assay, inhibition rates of Yes phosphorylation activity (first and second screening)
# Type: biochemical
# setup.conditions: first screening; mean of n = 4 wells; 10 μmol L−1 compound
measured.endpoint: First screening IR (inhibition rate) (%)
One number for each entry, in %.

| molecule | subject.of.test | measured.endpoint | measure.unit | measured.number |
| --- | --- | --- | --- | --- |
| O=C(c1cn(Cc2ccccc2)nc1-c1cccnc1)N1CCN(c2ccccn2)CC1 | human recombinant Yes [a.a. 2–543 (end)] (Homo sapiens) | First screening IR (inhibition rate) | % | 21 |
| O=c1c2ccc(C(F)(F)F)cc2nc2n1CC/C2=C/c1cccnc1 | human recombinant Yes [a.a. 2–543 (end)] (Homo sapiens) | First screening IR (inhibition rate) | % | 0 |
| COc1ccc(N(C)C(=O)c2[nH]nc(-c3ccccc3)c2Br)cn1 | human recombinant Yes [a.a. 2–543 (end)] (Homo sapiens) | First screening IR (inhibition rate) | % | -1 |

Okay, here is my list. What is First screening IR (inhibition rate) for each of these?
1. COc1ccc2c(C)cc(N/N=C/c3ccncc3)nc2c1
2. CN(c1ccc(NC(=O)N2CCN(C(=O)c3cccnc3)CC2)cc1F)C1CCCCC1
3. Cc1cc(C)c(C)c(S(=O)(=O)Nc2ccccc2C(=O)N2CCN(c3cccc(C(F)(F)F)c3)CC2)c1C
4. Cn1c(C(=O)Nc2ccc(NC(=O)c3ccco3)c(Cl)c2)cc2ccccc21
5. Cc1cccc(C)c1N=C1SC(C(=O)Nc2ccc(OC(F)F)cc2)C(N)=C1C(=O)N1CCN(C)CC1 (stereo not shown)
6. Cc1ccc(-n2c(C)nnc2SCC(=O)Nc2c(C#N)c(C)c(C)n2Cc2ccccc2)cc1

### Response
[3, 2, 21, 55, 15, 5]

Please report First screening IR (inhibition rate) for every entry that follows.
1. CCc1nnc2n1CCN(CC(=O)NC1CCCc3ccccc31)C2 (stereo not shown)
2. COc1ccc(CN2CCC(CNC(=O)c3ccccc3SCc3c(C)noc3C)CC2)cc1
3. CN1CCC(N(c2ccccc2)S(=O)(=O)c2cc(Cl)cc3c2OCC3)CC1
4. CCC(C)CS(=O)(=O)N(C)CC (stereo not shown)

### Response
1: -6; 2: -7; 3: 9; 4: -7

For every item below, please supply its First screening IR (inhibition rate).
1. Cc1nn(-c2ccccc2)c2sc(C(=O)NCc3ccccn3)cc12
2. COc1cc(NC(=O)COC(=O)c2cc(-c3cccs3)nc3onc(C)c23)cc(OC)c1

### Response
1
6

### Prompt Form field: reported First screening IR (inhibition rate) of O=C(NCc1cccc(C(F)(F)F)c1)Nc1ccc(NC(=O)c2ccco2)cc1
### Response -5

###

# subject.of.test: human recombinant Yes [a.a. 2–543 (end)] (Homo sapiens)
# Construct: human recombinant Yes [a.a; 2–543 (end)]; purchased BPS Bioscience 40488
# procedure.details: ADP-Glo kinase assay, inhibition rates of Yes phosphorylation activity (first and second screening)
# Format: biochemical
# setup.conditions: first screening; mean of n = 4 wells; 10 μmol L−1 compound
measured.endpoint: First screening IR (inhibition rate) (%)
Answers are plain numbers, in %.

Batch of 7 compounds: report First screening IR (inhibition rate) for each.
1. CC(C)c1nc2n(n1)CC(NCc1cc(-c3cccs3)on1)CC2 (centres unmarked) [Compound Z1139411735]
2. O=C(C1CC1)N1CCCCCC1C1CCN(Cc2nnc(C3CC3)o2)CC1 (centres unmarked) [Compound Z1170432033]
3. Cc1ccnn1-c1ccc(C(=O)N2CCC(N3CCCC3C(N)=O)CC2)cc1 (centres unmarked) [Compound Z968814168]
4. Cc1cnc(C)c(NCc2cccc(Cn3ccnc3C)c2)n1 [Compound Z1687428428]
5. Cc1nc2n(n1)CC(NCc1cn[nH]c1-c1ccc(C)o1)CC2 (centres unmarked) [Compound Z1051950052]
6. Cc1cccc(OCCCNC(=O)c2ccc3nc[nH]c3c2)c1 [Compound Z168616264]
7. COc1ccc(Br)c(CN(C)C(C)C2CCN(C)CC2)c1 (centres unmarked) [Compound Z1682981267]

### Response
-5
7
-8
9
20
-4
2

### Prompt What does the record list as First screening IR (inhibition rate) for N#CC(C(=O)CCc1ccc(F)cc1)c1nc2cc(Cl)ccc2c(=O)[nH]1 (centres unmarked) [Compound Z594627070] ?
### Response 1

Cited source: paper PMC5607274
